Sourced from patent US20220380341A1

Tested on: TZM-bl cell line
Type: cell-based
condition_parameters: human, 1 μM
measured_attribute: % Cell Viability (%)
Answers are plain numbers, in %.

Worked examples, 2 molecules total:
smiles=O=C(c1ccc(F)cc1)N1CCC(CCc2c(C3CC3)nn(-c3nc4cc(Cl)ccc4[nH]3)c2O)CC1 measured_attribute="% Cell Viability" assay_value=100
smiles=OCCc1c(-c2ccc(C(F)(F)F)cc2)nn(-c2nc3ccccc3[nH]2)c1O measured_attribute="% Cell Viability" assay_value=99.9

Consider the following items and state reported % Cell Viability for each.
1. COC(=O)N1CCC(c2nn(-c3nc4ccccc4[nH]3)c(O)c2CCc2ccc(F)cc2)CC1
2. O=C(c1ccoc1)N1CCC(c2nn(-c3nc4ccccc4[nH]3)c(O)c2CCc2ccc(F)cc2)CC1

Result block:
1. 89.8
2. 93.0

Count: 4. Required value per item: % Cell Viability.
1. Oc1c(CC2CCOCC2)c(C2CC2)nn1-c1nc2ccccc2[nH]1
2. CS(=O)(=O)c1ccc(-c2nn(-c3nc4ccccc4[nH]3)c(O)c2CCC2CCN(CC(F)(F)F)CC2)cc1
3. Oc1c(CCc2ccc(F)cc2)c(-c2ccc(C(F)(F)F)cn2)nn1-c1nc2ccccc2[nH]1
4. Oc1c(CCc2ccc(F)cc2)c(C2CC2)nn1-c1nc2cccnc2[nH]1

Result block:
1. 100
2. 69.3
3. 77.1
4. 100

###

Answer each item with its documented pKd.
tested_system: HIV-1 NefNL4-3 (Human immunodeficiency virus type 1 group M subtype B, UniProt P03406, A33V/T15A/T51N/V11I)
assay_summary: Surface plasmon resonance binding to recombinant full-length Nef (NL4-3)
Answers are plain numbers, as −log10 of the molar value.

A selection of reference data follows.
smiles=Oc1c(CCc2ccncc2)c(-c2ccc(C(F)(F)F)cc2)nn1-c1nc2ccccc2[nH]1 assay_value=5.75
smiles=COC(=O)c1ccc(CCc2c(-c3ccccc3)nn(-c3nc4cc(Cl)ccc4[nH]3)c2O)cc1 assay_value=6.05
smiles=CC(=O)N1CCC(Cc2nn(-c3nc4ccccc4[nH]3)c(O)c2CCc2ccc(F)cc2)CC1 assay_value=6.07

Kindly review the next compound as well.
Query block: // query pKd value for entry CS(=O)(=O)N1CCC(Cc2nn(-c3nc4ccccc4[nH]3)c(O)c2CCc2ccc(F)cc2)CC1
Result block: 6.02

###

tested_system: HIV-1 NefNL4-3 (Human immunodeficiency virus type 1 group M subtype B, UniProt P03406, A33V/T15A/T51N/V11I)
assay_summary: Surface plasmon resonance binding to recombinant full-length Nef (NL4-3)
condition_parameters: KD, M, Table 4; SPR fit 2-step induced fit, KD = koff/kon × koff2/(koff2 + kon2)
measured_attribute: pKd
Numbers only, as −log10 of the molar value.

In the examples that follow, each entry is paired with its recorded pKd.
compound=Oc1c(CC2CCCC2)c(-c2ccc(C(F)(F)F)cc2)nn1-c1nc2ccccc2[nH]1 assay_value=10.03
compound="Oc1c(CCc2ccc(F)cc2)c(C2CCCO2)nn1-c1nc2ccccc2[nH]1 (stereo not drawn)" assay_value=5.61

Please report pKd for every entry that follows.
1. Oc1c(CCN2CCOCC2)c(-c2ccc(C(F)(F)F)cc2)nn1-c1nc2ccccc2[nH]1
2. Oc1c(CCc2ccc(F)cc2)c(CNCc2ccncc2)nn1-c1nc2ccccc2[nH]1
3. Oc1c(CC2CCOCC2)c(-c2ccccc2F)nn1-c1nc2ccccc2[nH]1
4. CC(C)(C)OC(=O)N1CCC(c2nn(-c3nc4cc(F)c(F)cc4[nH]3)c(O)c2CCc2ccc(F)cc2)CC1
5. O=C(NCC1CC1)c1ccc(-c2nn(-c3nc4ccccc4[nH]3)c(O)c2CCc2ccc(F)cc2)cc1
6. Cc1ccn(CCc2c(-c3ccc(C(F)(F)F)cc3)nn(-c3nc4ccc(Cl)cc4[nH]3)c2O)n1

Result block:
1: 5.31; 2: 5.45; 3: 4.93; 4: 7.31; 5: 6.13; 6: 5.24

Hi, could you look up pKd for each item in my list?
1. Oc1c(CCC2CCOCC2)c(-c2cccc(F)c2)nn1-c1nc2cccnc2[nH]1
2. O=C(c1c(O)cc(O)cc1O)N1CCCC1c1nn(-c2nc3ccccc3[nH]2)c(O)c1CCc1ccc(F)cc1 (stereo not drawn)
3. Oc1c(CC2CCOCC2)c(-c2ccc(F)cc2)nn1-c1nc2ccccc2[nH]1
4. CC(C)(C)OC(=O)N1CCC(c2nn(-c3nc4ccccc4[nH]3)c(O)c2CCc2ccc(F)cc2)CC1
5. CS(=O)(=O)c1ccc(-c2nn(-c3cc(C(F)(F)F)n[nH]3)c(O)c2CCc2ccc(F)cc2)cc1
6. CCOC(=O)N1CCC(c2nn(-c3nc4ccccc4[nH]3)c(O)c2CCC2CCOCC2)CC1

Result block:
[5.50, 8.40, 5.20, 11.22, 4.45, 5.04]

Query block: Consider the compound shown here: COC(=O)N1CCC(c2nn(-c3nc4ccccc4[nH]3)c(O)c2CCc2ccc(F)cc2)CC1 What is its recorded pKd?
Result block: 6.26
